Target: Cytochrome P450 1B1 (Homo sapiens, UniProt Q16678)
Sequence (Q16678 whole entry): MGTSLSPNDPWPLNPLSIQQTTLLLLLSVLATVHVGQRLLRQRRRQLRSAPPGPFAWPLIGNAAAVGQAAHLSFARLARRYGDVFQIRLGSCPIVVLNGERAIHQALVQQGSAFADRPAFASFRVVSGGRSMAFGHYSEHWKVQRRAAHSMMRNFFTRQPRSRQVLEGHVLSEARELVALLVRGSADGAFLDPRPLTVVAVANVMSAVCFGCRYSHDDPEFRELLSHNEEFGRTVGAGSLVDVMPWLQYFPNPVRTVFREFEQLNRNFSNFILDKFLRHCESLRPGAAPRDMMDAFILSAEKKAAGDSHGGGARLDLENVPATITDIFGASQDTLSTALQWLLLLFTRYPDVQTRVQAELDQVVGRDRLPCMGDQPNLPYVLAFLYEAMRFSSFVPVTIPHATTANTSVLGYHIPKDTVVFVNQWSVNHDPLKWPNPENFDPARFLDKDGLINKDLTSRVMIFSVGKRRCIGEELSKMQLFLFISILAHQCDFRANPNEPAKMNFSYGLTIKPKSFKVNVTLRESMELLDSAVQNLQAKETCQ
Test: Inhibition of recombinant human CYP1B1 using 7-ethoxyresorufin as substrate after 35 mins in presence of NADP+ by EROD assay
pIC50: −log10 of the molar value.
Property label: pIC50

# count of solved cases: 5
Molecular string	Measured target	Observed value
COc1ccc(OC)c2c1c(OC)cc1c(=O)cc(-c3cncc(Br)c3)oc12	Cytochrome P450 1B1 (Homo sapiens, UniProt Q16678)	8.96
COc1ccc(OC)c2c1c(OC)cc1c(=O)cc(-c3cccnc3N)oc12	Cytochrome P450 1B1 (Homo sapiens, UniProt Q16678)	6.76
COc1ccc(OC)c2c1c(OC)cc1c(=O)cc(-c3ccnc(F)c3)oc12	Cytochrome P450 1B1 (Homo sapiens, UniProt Q16678)	9.03
COc1ccc(OC)c2c1c(OC)cc1c(=O)cc(-c3ccnc(O)c3)oc12	Cytochrome P450 1B1 (Homo sapiens, UniProt Q16678)	7.21
COc1ccc(OC)c2c1c(OC)cc1c(=O)cc(-c3ccnc(N)c3)oc12	Cytochrome P450 1B1 (Homo sapiens, UniProt Q16678)	7.69

A: COc1ccc(OC)c2c1c(OC)cc1c(=O)cc(-c3cncc(O)c3)oc12
B: COc1ccc(OC)c2c1c(OC)cc1c(=O)cc(-c3ccc(Cl)cn3)oc12
C: COc1ccc(OC)c2c1c(OC)cc1c(=O)cc(-c3cccc(C)n3)oc12
D: COc1ccc(OC)c2c1c(OC)cc1c(=O)cc(-c3ccccn3)oc12
E: COc1ccc(OC)c2c1c(OC)cc1c(=O)cc(-c3ccc(F)cn3)oc12
Hey, quick one: sort these by pIC50, low to high? Your reply should list the labels following the order given in the request.
A, C, D, B, E
(A: 7.99, C: 8.92, D: 9.22, B: 9.85, E: 10.15)
